Every entry's value here was drawn from the supplement of paper PMC11417369.

# Test system: PfAP2-HC AP2 domain (GST-tagged)
# experiment_notes: gcPBM binding intensity (ln(normalized median fluorescence intensity)); higher = stronger DNA binding
In all, about 25,000 sequences were measured (“ln(normalized median fluorescence intensity)”: median about 9.7, highest 2% from about 11 on). Shown is part of a subset that was picked to be rich in the highest values.
Would you please tag the item T when its gcPBM binding intensity (ln) is 10 or above, and F when it is below?

INSERT INTO results (residue_sequence, class) VALUES
  ('GAAGTATTATTAAAGCTGCACTTTTCTAAAATAAAC [GTGCAC_site9429]', 'F'),
  ('GTATCAAAAGAATACACACACACATACCTATAAATA [CACACA_site7737]', 'T'),
  ('ACCATCCTTAATACTTATTTTTTCACAATTAAGTAA [GTGCAC_negctrl_site269]', 'F'),
  ('TATATATGTATCAAGTGTACAGTTTTAAAAAAAAAA [XGTACX_site6011]', 'F'),
  ('CGCACCCACAGACACACACACACATATATATATATA [CACACA_site2202]', 'T'),
  ('GCATAAGAAATAAATAGTACACACATAGACACACAC [XGTACX_site3095]', 'T'),
  ('CACACCCACAGACACACACACACATATATAATATAT [CACACA_site594]', 'T'),
  ('TATATATATATAGACACACACACACCCATATATATA [CACACA_site4117]', 'T'),
  ('TATATGTTAATTTTTTTTTTTTTTTTTTTTTTTATA [CACACA_negctrl_site62]', 'F'),
  ('AAAATACACGCATACACACACACACCGACACATATA [CACACA_site4523]', 'T'),
  ('TAAGAAATAAATAGTACACACATAGACACCCACCGA [CACACA_site1516]', 'T'),
  ('CACACCCACAGACACACACACACATATATATATATA [CACACA_site363]', 'T'),
  ('AATATTATATTTTATTGTACTAATAAAAATATATGC [XGTACX_site5435]', 'F'),
  ('TTTTTTATATATGTGTGTGTGTGTGTGTCAAGTTTA [GTGCAC_negctrl_site460]', 'T'),
  ('AATAGTAAAAGATATACACACACCAAAAAATATAAT [CACACA_site5293]', 'T'),
  ('TAAGAAATAAATAGTACACACATAGACACCCACCCA [CACACA_site8429]', 'T'),
  ('GAAATAAATATATATGCATGTACTTTAATATTATTA [TGCATGCA_site904]', 'F'),
  ('ATAATCCACAAGCACACACACACACCCATATATATA [CACACA_site1268]', 'T'),
  ('AAAGAAAGAAAGAATACACACACACCGATATATATA [CACACA_site9246]', 'T'),
  ('ACCATATAAATAAACACACACACACCCATATATATA [CACACA_site2321]', 'T'),
  ('AAAAAAAAAAAATGTGCACACGCGTACAGACAAAAA [CACACA_site2005]', 'T'),
  ('GTATCAAAAGAATACACACACACATACAGATATATA [CACACA_site5975]', 'T'),
  ('CAATATTTTCATAGATGTACTTTGGACTTATTATAT [XGTACX_site4849]', 'F'),
  ('TTTTTTATTATTATGTGTACGAATATGTGCATATAA [XGTACX_site1364]', 'F'),
  ('TAAGAAATAAATAGTACACACATAGACACACGCACA [CACACA_site6821]', 'T'),
  ('AATTTTTTTTTTTTTTTTTTTTATATATGTGTGTGT [XGTACX_negctrl_site129]', 'T');

* * *

# System: PfAP2-HC AP2 domain (GST-tagged)
# experiment_notes: gcPBM binding intensity (ln(normalized median fluorescence intensity)); higher = stronger DNA binding
Over roughly 25,000 sequences, “ln(normalized median fluorescence intensity)” has its median near 9.7; the highest 2% begin near 11. The sample as a whole holds a higher share of the highest values than the screen did.
Response key: criterion met means gcPBM binding intensity (ln) >= 10; criterion not met means gcPBM binding intensity (ln) < 10.

INSERT INTO assay_data (residue_sequence, class) VALUES
  ('AAAAACCATTCGCACACACACATAATCTATAATATA [CACACA_site6782]', 'criterion met'),
  ('TATTTATTGTGATACTTATATTACTTAATGATTAAA [CACACA_negctrl_site676]', 'criterion not met'),
  ('AAGATAATTACGCACACACACACACGCCCACAACTA [CACACA_site7255]', 'criterion met'),
  ('AATAATAGAAGCACCCACCCACCACCACCCACACAT [CACACA_negctrl_site1033]', 'criterion met'),
  ('TGCATATACGCAAGCACACATATATATATATATATA [CACACA_site1069]', 'criterion not met'),
  ('AAAAAAAAAAAAAAAACACACACATATATATAATAT [CACACA_site9038]', 'criterion met'),
  ('AGAAGCATACATCAAGCACACACACCCACACCCACA [CACACA_site8014]', 'criterion met'),
  ('AAAAACCATGGGCACACACACATAATATATAATATA [CACACA_site1425]', 'criterion met');

* * *

# Test system: PfAP2-HC AP2 domain (GST-tagged)
# experiment_notes: gcPBM binding intensity (ln(normalized median fluorescence intensity)); higher = stronger DNA binding
The full ranking holds about 25,000 sequences; the median of “ln(normalized median fluorescence intensity)” is about 9.7, and the highest 2% start at about 11. This excerpt belongs to a sample that is enriched for the highest values.
attribute_measured: gcPBM binding intensity (ln)

INSERT INTO assay_data (residue_sequence, attribute_measured, observed) VALUES
  ('AAACTATTCACTATAATACATTAGAAGTGAATAAAA [TGCATGCA_negctrl_site498]', 'gcPBM binding intensity (ln)', 9.64),
  ('ATAGACAGCGCACAAACACACAAACACCCACCCACA [CACACA_site8043]', 'gcPBM binding intensity (ln)', 10.1),
  ('ACCGTGGGAAGACACACACACACACCCACATATATA [CACACA_site333]', 'gcPBM binding intensity (ln)', 11),
  ('ATAGACAGCGCACAAACACACAAACACAGACCCCCA [CACACA_site4409]', 'gcPBM binding intensity (ln)', 10.2),
  ('TTTTCTAAATATTATAGTACTCTTAATAATATTAAC [XGTACX_site4222]', 'gcPBM binding intensity (ln)', 9.34),
  ('AAAAAATAGTGGTATGCATGTCCCTTGTATTTTCTT [TGCATGCA_site587]', 'gcPBM binding intensity (ln)', 9.63),
  ('GGCATACACAGACACACACACACACCCACATATATA [CACACA_site591]', 'gcPBM binding intensity (ln)', 11.2),
  ('ATTATTTAAATTTAACGTACGGAATAAGACATAGAT [XGTACX_site8622]', 'gcPBM binding intensity (ln)', 9.79),
  ('CACAGACACCCATACACACACATACCCATATATATA [CACACA_site5023]', 'gcPBM binding intensity (ln)', 10.3);

* * *

# Tested on: PfAP2-HC AP2 domain (GST-tagged)
# experiment_notes: gcPBM binding intensity (ln(normalized median fluorescence intensity)); higher = stronger DNA binding
In all, about 25,000 sequences were measured (“ln(normalized median fluorescence intensity)”: median about 9.7, highest 2% from about 11 on). This excerpt belongs to a sample that is enriched for the highest values.
Label true when gcPBM binding intensity (ln) >= 10; otherwise false.

INSERT INTO measurements (residue_sequence, class) VALUES
  ('ACATAGATCATAGGTTGTACGAAGGTATCCTTTATT [XGTACX_site694]', 'false'),
  ('ATTAAATACATTAACACACACACAAATATATACATA [CACACA_site2881]', 'true'),
  ('TATATTATTTATAGTAGTACATAAAATATAAATATT [XGTACX_site4417]', 'false');

* * *

Here the recorded gcPBM binding intensity (ln) is given for each entry.
# System: PfAP2-HC AP2 domain (GST-tagged)
# experiment_notes: gcPBM binding intensity (ln(normalized median fluorescence intensity)); higher = stronger DNA binding
Over roughly 25,000 sequences, “ln(normalized median fluorescence intensity)” has its median near 9.7; the highest 2% begin near 11. The list comes from a sample in which the highest values are over-represented; it also holds close analogues and randomly drawn sequences.
attribute_measured: gcPBM binding intensity (ln)

INSERT INTO measurements (residue_sequence, observed) VALUES
  ('TCATTCATAAAAATAACACACAAAAAAAAAAAAAAA [CACACA_site1800]', 9.62),
  ('ACTTCAAAAAAAAAAAAATATATATATATATATTAT [GTGCAC_negctrl_site158]', 9.33),
  ('ACACAAAAAATAAAAATATATATATATTATATATAT [CACACA_negctrl_site1489]', 9.75),
  ('ATATATATATTCCACACACACACAAAAAAAAAAAAA [CACACA_site3648]', 10.6),
  ('AAGGTGGAAACAATTACACACACACTAATAAAAAAA [CACACA_site9051]', 10.8),
  ('AATTTTTTTTAATGATGTACTTTTTGAAAATAAACT [XGTACX_site4221]', 9.31),
  ('ATATAAATATTCCACACACACACAAAAAAAAAAAAA [CACACA_site7678]', 11),
  ('ATATTCATTAACCACACACACAAAAAAAATAAAATT [CACACA_site3801]', 10.2),
  ('ATTTTAATATAAAATACACACTACTATTATAAATAT [CACACA_site4917]', 9.64);
